- target-of-assay: insulin receptor of isolated rat adipocytes (rat, UniProt P15127 27-1383)
- Sequence (P15127 27-1383): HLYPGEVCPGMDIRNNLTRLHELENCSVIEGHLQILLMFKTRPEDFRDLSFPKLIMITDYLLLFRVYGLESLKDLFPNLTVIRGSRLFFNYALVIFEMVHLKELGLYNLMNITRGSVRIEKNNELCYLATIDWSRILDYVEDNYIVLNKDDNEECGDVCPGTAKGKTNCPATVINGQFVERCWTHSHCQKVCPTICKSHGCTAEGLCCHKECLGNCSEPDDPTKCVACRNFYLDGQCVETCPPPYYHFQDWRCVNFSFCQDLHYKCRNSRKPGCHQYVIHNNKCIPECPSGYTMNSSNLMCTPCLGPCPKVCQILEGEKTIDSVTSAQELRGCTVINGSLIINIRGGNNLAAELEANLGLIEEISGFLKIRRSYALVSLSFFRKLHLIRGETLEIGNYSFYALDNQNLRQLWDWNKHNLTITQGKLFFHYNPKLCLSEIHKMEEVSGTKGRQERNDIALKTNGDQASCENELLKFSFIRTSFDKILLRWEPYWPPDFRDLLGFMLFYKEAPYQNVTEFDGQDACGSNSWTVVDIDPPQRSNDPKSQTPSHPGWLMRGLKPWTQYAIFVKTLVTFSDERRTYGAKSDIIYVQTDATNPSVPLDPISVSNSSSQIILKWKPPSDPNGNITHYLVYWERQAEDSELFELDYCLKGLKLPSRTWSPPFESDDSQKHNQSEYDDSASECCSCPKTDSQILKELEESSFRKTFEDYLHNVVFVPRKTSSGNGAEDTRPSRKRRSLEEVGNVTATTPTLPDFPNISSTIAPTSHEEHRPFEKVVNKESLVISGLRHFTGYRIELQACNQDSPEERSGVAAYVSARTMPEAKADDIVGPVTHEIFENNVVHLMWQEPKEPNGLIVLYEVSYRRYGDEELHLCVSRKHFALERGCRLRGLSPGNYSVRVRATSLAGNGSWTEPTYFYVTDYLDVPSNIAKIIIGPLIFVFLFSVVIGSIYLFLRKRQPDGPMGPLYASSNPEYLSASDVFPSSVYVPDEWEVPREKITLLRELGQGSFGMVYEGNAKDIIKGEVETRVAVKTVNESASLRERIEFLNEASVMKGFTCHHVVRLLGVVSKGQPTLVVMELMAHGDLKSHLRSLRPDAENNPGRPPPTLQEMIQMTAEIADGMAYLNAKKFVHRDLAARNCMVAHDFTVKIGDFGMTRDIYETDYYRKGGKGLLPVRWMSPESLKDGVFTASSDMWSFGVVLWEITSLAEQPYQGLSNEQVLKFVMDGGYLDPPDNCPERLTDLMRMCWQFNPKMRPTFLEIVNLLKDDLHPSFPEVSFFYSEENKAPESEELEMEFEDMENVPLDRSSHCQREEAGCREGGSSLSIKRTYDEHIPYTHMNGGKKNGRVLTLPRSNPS
- test-protocol: cell-based or functional assay
readout-kind: Lipogenesis in rat adipocytes [Potency (%)] Mean Value

Please review the entries below; each comes with its answer.
{"columns": ["binder", "result"],
 "data": [
  ["A14E, A21G, A22(GQEP)6, A46K^, A47P, B25H, B29R, desB30 human insulin/(227A, 234A, 235K, 297E, 315Q, 384Q, des447 hIgG4-Fc(228-447)) … (other, Cys229 (EU numbering) sulphur bound to an acetyl arm of the linker; A46K N(eps) acylated by the trivalent linker 4-[bis[2-[(2-acetyl)amino]ethyl]amino]-4-oxo-butanoyl, also called Ex 5.32) chain 1: GIVEQCCTSICSLEQLENYCGGQEPGQEPGQEPGQEPGQEPGQEPKP chain 2: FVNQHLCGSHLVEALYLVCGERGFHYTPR chain 3: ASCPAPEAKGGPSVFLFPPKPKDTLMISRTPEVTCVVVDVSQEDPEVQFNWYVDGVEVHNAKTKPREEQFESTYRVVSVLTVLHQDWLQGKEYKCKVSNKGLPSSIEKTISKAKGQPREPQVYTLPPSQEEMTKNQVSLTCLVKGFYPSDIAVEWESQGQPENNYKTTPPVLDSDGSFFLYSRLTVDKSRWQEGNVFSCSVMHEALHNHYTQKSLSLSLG", "3.72 % of human insulin"],
  ["(A14E, A21G, A22(GQAP)18, A94G, A95Q, A96A, A97K^, A98P, B16E, B25H, B29R, desB30 human insulin)/(227A, 234A, 235K, 297E, 315Q, 384Q, des447 hIgG4-Fc(228-447)) … (other, Cys229 (EU numbering) sulphur bound to an acetyl arm of the linker; A97K N(eps) acylated by the trivalent linker 4-[bis[2-[(2-acetyl)amino]ethyl]amino]-4-oxo-butanoyl) chain 1: GIVEQCCTSICSLEQLENYCGGQAPGQAPGQAPGQAPGQAPGQAPGQAPGQAPGQAPGQAPGQAPGQAPGQAPGQAPGQAPGQAPGQAPGQAPGQAKP chain 2: FVNQHLCGSHLVEALELVCGERGFHYTPR chain 3: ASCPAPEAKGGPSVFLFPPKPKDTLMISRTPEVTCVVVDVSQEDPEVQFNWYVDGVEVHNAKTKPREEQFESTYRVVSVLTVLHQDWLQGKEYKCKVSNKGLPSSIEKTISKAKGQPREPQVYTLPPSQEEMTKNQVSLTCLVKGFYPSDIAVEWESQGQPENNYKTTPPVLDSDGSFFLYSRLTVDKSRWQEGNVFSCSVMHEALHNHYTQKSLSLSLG", "0.6 % of human insulin"],
  ["(A14E, A21G, A22(GQAP)24, A118G, A119Q, A120A, A121K^, A122P, B25H, B29R, desB30 human insulin)/(227A, 234A, 235K, 297E, 315Q, 384Q, des447 hIgG4-Fc(228-447)) … (other, Cys229 (EU numbering) sulphur bound to an acetyl arm of the linker; A121K N(eps) acylated by the trivalent linker 3,5-bis[(2-acetyl)amino]benzoyl, also called Ex 5.22) chain 1: GIVEQCCTSICSLEQLENYCGGQAPGQAPGQAPGQAPGQAPGQAPGQAPGQAPGQAPGQAPGQAPGQAPGQAPGQAPGQAPGQAPGQAPGQAPGQAPGQAPGQAPGQAPGQAPGQAPGQAKP chain 2: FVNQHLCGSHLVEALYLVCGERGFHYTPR chain 3: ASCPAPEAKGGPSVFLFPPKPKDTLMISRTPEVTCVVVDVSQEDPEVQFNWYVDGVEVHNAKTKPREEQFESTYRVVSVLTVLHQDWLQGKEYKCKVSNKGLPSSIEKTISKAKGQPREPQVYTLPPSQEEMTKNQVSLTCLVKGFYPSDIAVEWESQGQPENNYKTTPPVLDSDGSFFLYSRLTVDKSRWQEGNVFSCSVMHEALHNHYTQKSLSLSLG", "4.64 % of human insulin"],
  ["(A14E, A21G, A22(GQAP)19, A98K^, A99P, B25H, B29R, desB30 human insulin)/(227A, 234A, 235K, 297E, 315Q, 384Q, des447 hIgG4-Fc(228-447)) … (other, Cys229 (EU numbering) sulphur bound to an acetyl arm of the linker; A98K N(eps) acylated by the trivalent linker 6-[bis[2-[(2-acetyl)amino]ethyl]amino]-6-oxo-hexanoyl, also called Ex 5.16) chain 1: GIVEQCCTSICSLEQLENYCGGQAPGQAPGQAPGQAPGQAPGQAPGQAPGQAPGQAPGQAPGQAPGQAPGQAPGQAPGQAPGQAPGQAPGQAPGQAPKP chain 2: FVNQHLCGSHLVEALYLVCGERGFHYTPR chain 3: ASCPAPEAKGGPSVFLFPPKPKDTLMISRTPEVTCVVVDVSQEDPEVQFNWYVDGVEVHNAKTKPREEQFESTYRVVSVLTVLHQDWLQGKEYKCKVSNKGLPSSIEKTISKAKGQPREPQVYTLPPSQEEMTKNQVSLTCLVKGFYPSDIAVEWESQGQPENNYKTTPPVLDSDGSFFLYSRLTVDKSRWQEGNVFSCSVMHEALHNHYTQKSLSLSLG", "4.34 % of human insulin"],
  ["A14E, A21G, A22(GQAPGQEP)6, A70K^, A71P, B25H, B29R, desB30 human insulin/(227A, 234A, 235K, 297E, 315Q, 384Q, des447 hIgG4-Fc(228-447)) … (other, Cys229 (EU numbering) sulphur bound to an acetyl arm of the linker; A70K N(eps) acylated by the trivalent linker 4-[bis[2-[(2-acetyl)amino]ethyl]amino]-4-oxo-butanoyl, also called Ex 5.14) chain 1: GIVEQCCTSICSLEQLENYCGGQAPGQEPGQAPGQEPGQAPGQEPGQAPGQEPGQAPGQEPGQAPGQEPKP chain 2: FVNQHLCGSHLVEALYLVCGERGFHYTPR chain 3: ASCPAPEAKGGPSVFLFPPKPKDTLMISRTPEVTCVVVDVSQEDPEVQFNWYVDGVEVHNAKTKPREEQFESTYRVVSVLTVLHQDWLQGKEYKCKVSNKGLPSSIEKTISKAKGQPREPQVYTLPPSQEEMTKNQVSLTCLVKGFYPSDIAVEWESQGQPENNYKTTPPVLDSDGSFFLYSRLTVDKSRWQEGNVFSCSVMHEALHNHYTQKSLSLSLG", "4.86 % of human insulin"],
  ["A14E, A21G, A22(GQAPGQAPGQEP)6-GQAP, A98K^, A99P, B3Q, B25H, B29R, desB30 human insulin/(227A, 234A, 235K, 297E, 315Q, 384Q, des447 hIgG4-Fc(228-447)) … (other, Cys229 (EU numbering) sulphur bound to an acetyl arm of the linker; A98K N(eps) acylated by the trivalent linker 4-[bis[2-[(2-acetyl)amino]ethyl]amino]-4-oxo-butanoyl, also called Ex 5.13) chain 1: GIVEQCCTSICSLEQLENYCGGQAPGQAPGQEPGQAPGQAPGQEPGQAPGQAPGQEPGQAPGQAPGQEPGQAPGQAPGQEPGQAPGQAPGQEPGQAPKP chain 2: FVQQHLCGSHLVEALYLVCGERGFHYTPR chain 3: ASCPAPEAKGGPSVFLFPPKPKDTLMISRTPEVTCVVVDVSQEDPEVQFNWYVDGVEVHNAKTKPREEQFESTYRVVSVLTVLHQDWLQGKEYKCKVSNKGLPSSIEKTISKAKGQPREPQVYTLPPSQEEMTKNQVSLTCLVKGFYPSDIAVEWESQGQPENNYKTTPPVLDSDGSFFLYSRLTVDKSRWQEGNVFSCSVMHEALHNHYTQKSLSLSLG", "3.07 % of human insulin"],
  ["(A14A, A21G, A22(GQAP)18, A94G, A95Q, A96A, A97K^, A98P, B29R, desB30 human insulin)/(227A, 234A, 235K, 297E, 315Q, 384Q, des447 hIgG4-Fc(228-447)) … (other, Cys229 (EU numbering) sulphur bound to an acetyl arm of the linker; A97K N(eps) acylated by the trivalent linker 4-[bis[2-[(2-acetyl)amino]ethyl]amino]-4-oxo-butanoyl, also called Ex 5.25) chain 1: GIVEQCCTSICSLAQLENYCGGQAPGQAPGQAPGQAPGQAPGQAPGQAPGQAPGQAPGQAPGQAPGQAPGQAPGQAPGQAPGQAPGQAPGQAPGQAKP chain 2: FVNQHLCGSHLVEALYLVCGERGFFYTPR chain 3: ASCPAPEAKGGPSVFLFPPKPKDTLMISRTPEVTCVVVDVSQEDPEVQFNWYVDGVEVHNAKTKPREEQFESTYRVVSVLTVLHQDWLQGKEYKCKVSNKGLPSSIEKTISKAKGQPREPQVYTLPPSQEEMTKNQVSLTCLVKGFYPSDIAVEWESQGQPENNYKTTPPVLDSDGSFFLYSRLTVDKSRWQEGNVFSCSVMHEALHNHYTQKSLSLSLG", "2.08 % of human insulin"]
]}

Next item in the queue.
Which value of Lipogenesis in rat adipocytes [Potency (%)] Mean Value has been reported for A14E, A21G, A22(GQAPGQAPGQEP)6-GQAP, A98K^, A99P, B29R, desB30 human insulin/(227A, 234A, 235K, 297E, 315Q, 384Q, des447 hIgG4-Fc(228-447)) … (other, Cys229 (EU numbering) sulphur bound to an acetyl arm of the linker; A98K N(eps) acylated by the trivalent linker 4-[bis[2-[(2-acetyl)amino]ethyl]amino]-4-oxo-butanoyl) chain 1: GIVEQCCTSICSLEQLENYCGGQAPGQAPGQEPGQAPGQAPGQEPGQAPGQAPGQEPGQAPGQAPGQEPGQAPGQAPGQEPGQAPGQAPGQEPGQAPKP chain 2: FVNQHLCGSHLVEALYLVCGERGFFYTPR chain 3: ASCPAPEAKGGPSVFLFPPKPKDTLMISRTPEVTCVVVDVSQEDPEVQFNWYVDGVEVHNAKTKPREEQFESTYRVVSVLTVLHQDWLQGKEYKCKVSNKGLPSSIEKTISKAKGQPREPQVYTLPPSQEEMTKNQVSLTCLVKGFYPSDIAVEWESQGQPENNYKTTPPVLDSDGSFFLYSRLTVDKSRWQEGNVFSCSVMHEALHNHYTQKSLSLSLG in the records?
3.02 % of human insulin
